Each entry below carries its recorded pIC50.
- experimental.system: Amine oxidase [flavin-containing] A (Homo sapiens)
- Sequence (P21397 whole entry): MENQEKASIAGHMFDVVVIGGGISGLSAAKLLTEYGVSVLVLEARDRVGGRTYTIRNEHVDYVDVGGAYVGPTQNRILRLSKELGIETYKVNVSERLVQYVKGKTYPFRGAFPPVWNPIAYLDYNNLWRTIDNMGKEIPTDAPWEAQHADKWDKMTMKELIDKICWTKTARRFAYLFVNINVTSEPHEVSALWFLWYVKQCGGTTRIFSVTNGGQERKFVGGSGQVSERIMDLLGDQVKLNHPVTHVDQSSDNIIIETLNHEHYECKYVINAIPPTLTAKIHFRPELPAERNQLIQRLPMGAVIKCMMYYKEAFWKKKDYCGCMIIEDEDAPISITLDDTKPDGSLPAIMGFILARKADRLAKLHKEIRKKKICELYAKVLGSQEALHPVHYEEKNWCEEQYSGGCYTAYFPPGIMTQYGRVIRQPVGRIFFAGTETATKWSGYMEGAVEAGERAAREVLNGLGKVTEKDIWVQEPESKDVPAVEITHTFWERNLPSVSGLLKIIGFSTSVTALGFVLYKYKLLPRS
- procedure.text: Inhibition of human recombinant MAOA using kynuramine as substrate preincubated for 30 mins followed by substrate addition
pIC50: −log10 of the molar value.
assay.endpoint: pIC50

[[record]]
smiles_input = "CC(C)=CC(=O)O[C@H]1Cc2cc3ccc(=O)oc3cc2OC1(C)C"
assay_endpoint = "pIC50"
reported_measurement = 5.75

[[record]]
smiles_input = "O=c1cc(-c2ccc(O)cc2)oc2cc(O)cc(O)c12"
assay_endpoint = "pIC50"
reported_measurement = 5.81

[[record]]
smiles_input = "O=C1/C(=C/c2ccc(O)cc2)Oc2cc(O)ccc21"
assay_endpoint = "pIC50"
reported_measurement = 6.59

[[record]]
smiles_input = "COc1ccc(-c2cc(=O)c3c(O)cc(O)cc3o2)cc1"
assay_endpoint = "pIC50"
reported_measurement = 6.72

[[record]]
smiles_input = "O=C1/C(=C/c2ccc(O)c(O)c2)Oc2cc(O)ccc21"
assay_endpoint = "pIC50"
reported_measurement = 5.38

[[record]]
smiles_input = "COc1cc(O)c2c(=O)oc3cc(O)cc(C)c3c2c1"
assay_endpoint = "pIC50"
reported_measurement = 5.77

